For each entry below, report its pIC50 value.
test: Inhibition of protein phosphatase 2A (PP2A) was determined by standard phosphorylase inhibition assay; set-up: species or system Oryctolagus cuniculus
pIC50 here is simply -log10 of the concentration when that concentration is written in mol/L.

Quote pIC50 reported for `CC[C@@H](C)CC[C@H](O)[C@H](C)C(=O)C[C@@H](O)[C@H](OC)[C@H](OC(=O)C[C@@H](O)C1=C(C)C(=O)OC1=O)C(C)C` please.
4.00

Could you please provide reported pIC50 for `CO[C@H]([C@H](O)CC(=O)[C@@H](C)[C@@H](O)CC[C@@H](C)[C@@H]1O[C@]2(CC[C@@H](C)[C@H](CC[C@H](C)C(C)=O)O2)CC[C@@H]1C)[C@H](OC(=O)C[C@@H](O)C1=C(C)C(=O)OC1=O)C(C)C` ? Thanks!
6.05

Look up and state reported pIC50 for `CO[C@@H](CO)[C@H](OC(=O)C[C@@H](O)C1=C(C)C(=O)OC1=O)C(C)C`
5.48
